- test_description: Pharmacokinetics of combined dosage form: randomized, open, 3-way crossover study
- Assay type: in vivo
- setup_conditions: human; plasma netupitant; oral netupitant 450 mg single dose, fasting; mean (SD)
readout_kind: Cmax (ng/mL)

INSERT INTO assay_data (record_smiles, endpoint_value) VALUES
  ('Cc1ccccc1-c1cc(N2CCN(C)CC2)ncc1N(C)C(=O)C(C)(C)c1cc(C(F)(F)F)cc(C(F)(F)F)c1', 650);

* * *

- test_description: Pharmacokinetics of combined dosage form: randomized, open, 3-way crossover study
- Assay type: in vivo
- setup_conditions: human; plasma palonosetron; oral palonosetron 0.75 mg single dose, fasting; median (range); read-out: Palonosetron t1/2, z (converted)
readout_kind: half-life (min)

INSERT INTO results (record_smiles, readout_kind, unit_name, endpoint_value) VALUES
  ('Cl.O=C1c2cccc3c2[C@H](CCC3)CN1[C@@H]1CN2CCC1CC2', 'half-life', 'min', 2080);
